Entries annotated with measured residual activity
- target.under.test: MAPK15 (human)
- assay.method.text: radiometric filter-binding kinase assay
- run.parameters: compound 1.0 µM
Could you give me the number in %? Just the number is fine.

{"compound": "Nc1cccc2c1CN(C1CCC(=O)NC1=O)C2=O (stereo not drawn)", "readout.number": 92}

Memo: c1ccc2c(-c3cnn4cc(-c5ccc(N6CCNCC6)cc5)cnc34)ccnc2c1 , reported residual activity: 49

The compound O=C(Nc1ccccc1-c1cn2c(CN3CCNCC3)csc2n1)c1cnc2ccccc2n1 showed residual activity equal to 96

residual activity recorded for this compound, Cc1cccc(Nc2nn(C)c3ncnc(N)c23)c1 , is 76

FYI, the data here is from the kinase profiling compilation of Christmann-Franck et al. (2016).
